Assay: Noncompartmental pharmacokinetic parameters (Cmax, Tmax, AUC, Racc) in QD and BID cohorts of Form B
Assay type: in vivo, human
Conditions: human, plasma, oral, 150 mg, Compound III; 150 mg BID of Form B; Cohort 7; Day 29; read-out: AUClast (Mean)

# compound, AUC(0-t) [ng·h/mL]
records = [
    ("O=C1NCC2(CCCCC2)n2c1cc1cnc(Nc3ccc(N4CCNCC4)cn3)nc12 [Compound III]", 47.9),
]

---

Assay: Plasma concentration versus time of Compound I and metabolite Compound III in patients dosed QD or BID with Form B of Compound II plus fulvestrant
Assay type: in vivo, human
Conditions: human, plasma, oral, 500 mg, 500 mg QD of Form B, Day 1, 2.0 h, Median; read-out: Compound I Concentration

# compound, output-unit, concentration at 2 h
data = [
    ("CC(C)N1CCN(c2ccc(Nc3ncc4cc5n(c4n3)C3(CCCCC3)CNC5=O)nc2)CC1 [Compound I]", "µg/mL", 0.0181),
]
